The values you see were collected from patent US20200239555A1.

Target: T1, biotinylated native human ApoC3 (human, UniProt P02656 21-99, biotinylated (site not stated))
T1 construct: also called biotinylated human ApoC3
T1 sequence (P02656 21-99): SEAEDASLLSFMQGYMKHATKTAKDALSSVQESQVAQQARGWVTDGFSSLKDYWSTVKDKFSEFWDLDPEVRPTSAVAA
Assay: SPR, IgG1 over biotinylated ApoC3 on SA chip, pH 5.5
Listing of entries alongside the reported koff.
// note: answer is a bare numeric in s⁻¹

Query :: Would you mind telling me what koff value was observed for 5E5VH5_VL8 human IgG1 (antibody, V domains shown, Tested as human IgG1; the tested lot is not tied to them in words) VH: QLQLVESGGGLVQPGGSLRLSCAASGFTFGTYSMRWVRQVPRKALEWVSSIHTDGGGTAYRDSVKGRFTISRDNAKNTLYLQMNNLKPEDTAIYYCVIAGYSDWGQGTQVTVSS VL: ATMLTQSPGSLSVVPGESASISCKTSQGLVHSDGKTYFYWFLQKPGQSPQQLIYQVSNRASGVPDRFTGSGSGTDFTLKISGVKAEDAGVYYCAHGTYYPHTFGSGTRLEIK ?
Result :: 0.00242

Query :: Try this binder next: mAb9 (antibody, IgG1, V domains shown, Produced as full length IgG1 (kappa) in ExpiCHO-S cells; also called humanized anti-ApoC3 antibody mAb9) VH: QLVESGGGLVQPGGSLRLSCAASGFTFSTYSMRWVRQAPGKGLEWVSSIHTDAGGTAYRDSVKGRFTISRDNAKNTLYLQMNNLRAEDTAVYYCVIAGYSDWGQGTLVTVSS VL: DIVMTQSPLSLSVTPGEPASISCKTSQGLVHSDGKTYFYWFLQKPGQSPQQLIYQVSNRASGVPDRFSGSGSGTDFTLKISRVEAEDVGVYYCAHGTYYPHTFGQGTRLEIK
Result :: 0.000369

Query :: Do the same for mAb12 (antibody, IgG1, V domains shown, Produced as full length IgG1 (kappa) in ExpiCHO-S cells; also called humanized anti-ApoC3 antibody mAb12) VH: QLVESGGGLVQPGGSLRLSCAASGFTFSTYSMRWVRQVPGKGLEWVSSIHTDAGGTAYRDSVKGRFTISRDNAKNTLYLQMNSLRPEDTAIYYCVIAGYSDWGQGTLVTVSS VL: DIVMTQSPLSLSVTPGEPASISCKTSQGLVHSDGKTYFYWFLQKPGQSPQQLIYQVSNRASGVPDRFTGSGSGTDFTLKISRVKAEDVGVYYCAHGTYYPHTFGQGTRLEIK please
Result :: 6.73e-05

Query :: Okay, and mAb2 (antibody, IgG1, V domains shown, Produced as full length IgG1 (kappa) in ExpiCHO-S cells; also called humanized anti-ApoC3 antibody mAb2) VH: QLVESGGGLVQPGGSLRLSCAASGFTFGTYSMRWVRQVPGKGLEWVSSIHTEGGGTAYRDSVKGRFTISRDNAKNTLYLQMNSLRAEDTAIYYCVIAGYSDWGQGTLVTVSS VL: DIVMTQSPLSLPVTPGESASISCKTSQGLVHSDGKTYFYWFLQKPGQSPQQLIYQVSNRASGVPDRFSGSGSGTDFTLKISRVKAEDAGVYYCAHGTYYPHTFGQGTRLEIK ?
Result :: 0.000123

Query :: And then mAb17 (antibody, IgG1, V domains shown, Produced as full length IgG1 (kappa) in ExpiCHO-S cells; also called humanized anti-ApoC3 antibody mAb17) VH: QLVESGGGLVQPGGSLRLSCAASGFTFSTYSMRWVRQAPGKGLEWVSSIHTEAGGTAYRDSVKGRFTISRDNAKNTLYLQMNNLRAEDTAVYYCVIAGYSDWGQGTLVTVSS VL: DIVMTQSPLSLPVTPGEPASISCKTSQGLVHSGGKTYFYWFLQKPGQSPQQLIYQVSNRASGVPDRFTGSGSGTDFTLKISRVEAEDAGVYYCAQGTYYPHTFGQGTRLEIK , what is it?
Result :: 0.000276

Query :: // next record mAb18 (antibody, IgG1, V domains shown, Produced as full length IgG1 (kappa) in ExpiCHO-S cells; also called humanized anti-ApoC3 antibody mAb18) VH: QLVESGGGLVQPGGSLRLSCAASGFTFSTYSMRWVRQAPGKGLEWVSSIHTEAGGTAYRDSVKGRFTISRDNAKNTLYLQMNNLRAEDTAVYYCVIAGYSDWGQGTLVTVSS VL: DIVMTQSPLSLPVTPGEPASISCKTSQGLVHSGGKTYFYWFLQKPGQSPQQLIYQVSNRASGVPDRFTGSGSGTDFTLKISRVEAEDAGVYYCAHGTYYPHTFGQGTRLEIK
Result :: 0.0155

Query :: Cool, now mAb6 (antibody, IgG1, V domains shown, Produced as full length IgG1 (kappa) in ExpiCHO-S cells; also called humanized anti-ApoC3 antibody mAb6) VH: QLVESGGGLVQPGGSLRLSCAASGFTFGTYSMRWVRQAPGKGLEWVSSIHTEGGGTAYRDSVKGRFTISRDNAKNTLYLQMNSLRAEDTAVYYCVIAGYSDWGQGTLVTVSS VL: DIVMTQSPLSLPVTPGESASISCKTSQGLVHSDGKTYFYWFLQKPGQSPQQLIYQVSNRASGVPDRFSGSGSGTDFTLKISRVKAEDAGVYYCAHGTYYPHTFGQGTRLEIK
Result :: 0.000148
